Kindly supply the reported MEC (minimal effective concentration) values for the records listed here.
Biological target: recombinant guanylate cyclase reporter cell line (Rattus norvegicus, UniProt P19686+P20595)
Construct: expressed in transfected cells
Sequence (P20595 whole entry): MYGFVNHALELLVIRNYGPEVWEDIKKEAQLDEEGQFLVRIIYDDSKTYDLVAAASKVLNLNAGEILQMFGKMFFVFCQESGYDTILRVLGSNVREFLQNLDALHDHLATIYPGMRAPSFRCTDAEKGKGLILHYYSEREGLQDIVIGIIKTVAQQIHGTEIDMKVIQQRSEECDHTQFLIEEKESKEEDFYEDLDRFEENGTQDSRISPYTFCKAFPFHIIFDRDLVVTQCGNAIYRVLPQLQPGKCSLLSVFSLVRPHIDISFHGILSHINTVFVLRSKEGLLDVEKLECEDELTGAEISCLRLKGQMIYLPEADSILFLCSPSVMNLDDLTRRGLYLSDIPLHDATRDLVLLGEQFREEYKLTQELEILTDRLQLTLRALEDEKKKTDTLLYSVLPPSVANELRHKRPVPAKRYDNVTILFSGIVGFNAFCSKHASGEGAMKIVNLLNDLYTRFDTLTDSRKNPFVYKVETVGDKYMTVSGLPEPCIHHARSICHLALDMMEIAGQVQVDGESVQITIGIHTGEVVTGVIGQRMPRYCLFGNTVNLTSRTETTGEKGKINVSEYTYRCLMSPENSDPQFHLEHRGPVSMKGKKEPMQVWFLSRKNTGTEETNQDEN
Sequence (P19686 whole entry): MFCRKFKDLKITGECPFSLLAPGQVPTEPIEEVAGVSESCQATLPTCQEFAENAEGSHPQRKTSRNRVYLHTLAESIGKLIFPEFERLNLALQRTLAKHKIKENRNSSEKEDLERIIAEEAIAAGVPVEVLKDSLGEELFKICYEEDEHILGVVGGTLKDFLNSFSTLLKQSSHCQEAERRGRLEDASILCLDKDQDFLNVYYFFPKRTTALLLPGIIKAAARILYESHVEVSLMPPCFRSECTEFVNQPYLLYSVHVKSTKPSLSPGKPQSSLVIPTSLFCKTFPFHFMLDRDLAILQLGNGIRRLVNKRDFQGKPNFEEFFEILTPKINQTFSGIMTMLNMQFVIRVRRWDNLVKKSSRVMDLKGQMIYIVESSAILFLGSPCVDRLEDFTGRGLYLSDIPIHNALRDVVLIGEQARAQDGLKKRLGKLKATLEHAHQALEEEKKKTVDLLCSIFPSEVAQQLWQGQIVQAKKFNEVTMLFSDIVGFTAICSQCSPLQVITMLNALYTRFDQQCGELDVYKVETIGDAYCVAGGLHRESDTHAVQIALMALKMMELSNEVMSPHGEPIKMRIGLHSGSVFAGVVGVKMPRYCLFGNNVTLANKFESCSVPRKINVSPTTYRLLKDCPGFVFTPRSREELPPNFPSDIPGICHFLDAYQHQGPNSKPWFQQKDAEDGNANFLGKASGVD
Test: Action on recombinant guanylate cyclase reporter cell line
Assay type: cell-based
Settings: in some cases mean values obtained from individual determinations
Numbers only, in µM.

{"columns": ["COMPOUND", "MEC (minimal effective concentration) / µM"],
 "data": [
  ["Cc1nc2c(OCc3c(F)cccc3F)cccn2c1C(=O)NC[C@@H](O)c1ccccc1", 1.0],
  ["CCCC[C@@H](NC(=O)c1c(C)nc2c(OCc3c(F)cccc3F)cccn12)C(C)O (stereo partly shown) [Example 140]", 0.03],
  ["CCCC[C@H](CO)NC(=O)c1c(C)nc2c(OCc3c(F)cccc3F)cccn12", 0.05]
]}

Give MEC (minimal effective concentration) for all compounds that follow.
1. Cc1nc2c(OCc3c(F)cccc3F)cccn2c1C(=O)NCC1CCCC[C@H]1O (stereo partly shown)
2. CC[C@H](CO)NC(=O)c1c(C)nc2c(OCc3ccccc3)cccn12

1: 0.3; 2: 3.0

Parameters: items (list). Returns: MEC (minimal effective concentration) for each item.
1. Cc1nc2c(OCc3c(F)cccc3F)cccn2c1C(=O)NC(CCC(F)(F)F)C(C)(C)O (racemic) [Example 149]
2. CCCC[C@H](CO)NC(=O)c1c(C)nc2c(OCc3cccc4c3OC(F)(F)O4)cccn12
3. Cc1nc2c(OCc3c(F)cccc3F)cccn2c1C(=O)NC(CO)c1ccc(S(C)(=O)=O)cc1 (racemic)
4. Cc1nc2c(OCC3CCCCC3)cccn2c1C(=O)NC(C)(C)C(C)O (stereo not shown)
5. Cc1cc(OCc2ncccc2F)c2nc(C)c(C(=O)NC(CCC(O)C(F)(F)F)C(C)(C)O)n2c1 (mixture of isomers) [Example 195]

1. 0.1
2. 3.0
3. 1.0
4. 1.0
5. 10

Would you be so kind as to report MEC (minimal effective concentration) for each listed record?
1. Cc1cc(OCCC(C(F)(F)F)C(F)(F)F)c2nc(C)c(C(=O)NC3c4ccccc4CC3O)n2c1 (stereo not shown)
2. Cc1nc2c(OCc3c(F)cccc3F)cccn2c1C(=O)NC(CO)CO
3. Cc1nc2c(OCC3CCCCC3)cccn2c1C(=O)NC(CO)COC(C)(C)C (stereo not shown)

[1.0, 2.0, 3.0]
